B1: tRNA (parent)
chain: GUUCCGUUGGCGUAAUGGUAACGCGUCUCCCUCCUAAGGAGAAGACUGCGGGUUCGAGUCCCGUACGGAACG

- Variants of: B1
- PROTOCOL SUMMARY: yeast fitness relative to wild type (ratio to wild type); higher = fitter; tRNA-Arg(CCU), competitive growth, 37 C, YPD
Variants at the floor of the assay were thinned out.
Label Y when yeast fitness >= 0.6; otherwise N.

These solved cases illustrate the format of a correct answer.
SEQUENCE RECORD | CLASS ASSIGNMENT
GUUCCGUUGGCGUAAUGGCAACGCGUCUGCCUCCUAAGGAGAAGACUGCGGGUUCGAGUCUCGUAAGGAACG | N
GUUCCGUUGGCAUAAUGGUAACGCGUCUCCCUCCUAAGGUGAAGGCUGCGGGUUCGAGUACCGUACGGAACG | N
GUUCCGUUGGCGUAAUGGUAACGCGUCUCCCUCCUAAGGAGAAAACUGCGGGUUCGAGUCCCCUACGGAACG | Y
GUUCCGUUGGCGUAAUGGUAACGCGUCUCCCUCCUAAGGAGAAGACCGCGGGUUCGGGUCCCGUUAGGCACG | N
GUUCCGUUGGCGGAAUGGUAACGCGUCCCCCUCCUAAGGAGAAGACUGCGGGUUCGAGUCCCGUACGGAACG | Y

Data request: Hi, just wondering whether GUUCCGUUGGCGUAAUGGUAACUCGUCUCCCUCCUAAGGAGAAGACUGUGGGUUAGAGUCCCGUAUGGAACG shows yeast fitness of 0.6 or higher.
Data returned: N

Data request: Hi, just wondering whether GUUCCGUUGGCGUAAUGGUAACGCGUCUCCCUCCUAAAGAGAACACGGCGGGUUCGAGUCCCGUACGGAACG shows yeast fitness of 0.6 or higher.
Data returned: N

Data request: Hi, just wondering whether GUUCCGUUGGCGUAAUGGUAACGCGUCUCCCUCCUAAGAAGUAGACUGAGGGUUCGAGUCCCGUACGGAACG shows yeast fitness of 0.6 or higher.
Data returned: N

Data request: Hi, just wondering whether GUUCCGUUGGCGUUAUGGUAGCGCGUCUCCCUCCUAAGCAGAAGGCUGCGGGCUCGAGUCCCGUACGGAACG shows yeast fitness of 0.6 or higher.
Data returned: N

Data request: Hi, just wondering whether GUUCCGUUGGCGUAAUGGUAACGCGUCUCCCUCAUAAGGAGAAGACUGCGGGUUCGAGGCCCGUACGGAACG shows yeast fitness of 0.6 or higher.
Data returned: Y

Data request: Hi, just wondering whether GUUCCGUUGGCGUAAUGGUAACGCGUCUUCCUCCUAAGGAAAAGCCUGCGGGUUCGAGUCCCGUACUGAACG shows yeast fitness of 0.6 or higher.
Data returned: N

Data request: Hi, just wondering whether GUUCCGACGGCGUAAUAGUAACGCGUGUUCCUCCUAAGGAGACGACUGCGGAUUCGAGUCCCGUACGGAACG shows yeast fitness of 0.6 or higher.
Data returned: N

Data request: Hi, just wondering whether GUUCCGUUGGCGUAAUGGUAACGCGUCUCGCUCCUAAGGAGAUGACUCCGGGUUAGAGUCCCGUACGGAACG shows yeast fitness of 0.6 or higher.
Data returned: N

Data request: Hi, just wondering whether GUUCCGUUGACGUAAUGGUAACGCCUCUCCCUCCUAAGGAGAAGACUGCGGGUUCGAGUCCCGUACGGAACG shows yeast fitness of 0.6 or higher.
Data returned: Y

Data request: Hi, just wondering whether GUUCCGUUGGCGUAAUGGUGACGCGUCUCCCUCCUAAGGAGAAGACUGCGGGUUCGAGUCCUGUACGGAACG shows yeast fitness of 0.6 or higher.
Data returned: Y

Data request: Hi, just wondering whether GUCCCGUUGGCGUAAUGAUAACGCGUCUCCAUCCUAAGGAGAAGACUGCGGGUUCCAGUCCCGUACGGCACG shows yeast fitness of 0.6 or higher.
Data returned: N

Data request: Hi, just wondering whether GUUCCGUUGUCGUAAUGGUAACGCGUCUCCCUCCUAAGGAGAGGAUUGCGGGUUCGAGUCCCGUACGGAACG shows yeast fitness of 0.6 or higher.
Data returned: N

The reported numbers originate from the RNAGym collection of RNA variant scans (doi:10.1126/science.aae0568).
